# Tested on: HCV replication
# measurementNotes: Replicon Assay (Huh-lucubineo-ET cells, luciferase readout)
# Format: cell-based
# reportedConditions: Hepatitis C virus; ET (Huh-lucubineo-ET) HCV replicon cell line; luciferase activity 48-72 hours after compound addition; 6 dilutions
attributeMeasured: EC50

Q: Provide value of EC50 for this record tested with HCV replication: CC[C@H](C)COc1ccc(-c2ccc(Cn3cc4nc(-c5cccc(F)c5F)nc-4cn3)nn2)c(C(F)(F)F)c1 [Compound 321]
A: 0.045 µM

Q: Provide value of EC50 for this record tested with HCV replication: CCCOc1ccc(-c2ccc(Cn3cc4nc(-c5cccc(F)c5F)nc-4cn3)c(N)n2)c(C(F)(F)F)c1 [Compound 232]
A: 0.018 µM

Q: Provide value of EC50 for this record tested with HCV replication: Fc1cccc(-c2nc3cnn(Cc4cccc(Oc5ccccc5)c4)cc-3n2)c1F [Compound 279]
A: 20 µM

Q: Provide value of EC50 for this record tested with HCV replication: CCCOc1ccc(-c2ccc(Cn3cc4nc(-c5cccc(F)c5F)nc-4cn3)cn2)cc1 [Compound 245]
A: 8.35 µM

Q: Provide value of EC50 for this record tested with HCV replication: CC(C)(C)c1ccc(-c2ccc(Cn3cc4nc(-c5cccc(F)c5F)nc-4cn3)nn2)cc1 [Compound 215]
A: 11.6 µM

Q: Provide value of EC50 for this record tested with HCV replication: Fc1cc(Cn2cc3nc(-c4cccc(F)c4F)nc-3cn2)ccc1Br [Compound 309]
A: 61 µM

Q: Provide value of EC50 for this record tested with HCV replication: COc1ccc(-c2ccc(Cn3cc4nc(-c5cccc(F)c5F)nc-4cn3)c(-c3ccc(OC)cc3C(F)(F)F)n2)c(C(F)(F)F)c1 [Compound 252]
A: 2.64 µM

Q: Provide value of EC50 for this record tested with HCV replication: Fc1cccc(-c2nc3cnn(Cc4ccc(-c5ccc(OCC6CCOCC6)cc5C(F)(F)F)nn4)cc-3n2)c1F [Compound 320]
A: 1.71 µM

Q: Provide value of EC50 for this record tested with HCV replication: Fc1cccc(-c2nc3cnn(Cc4ccc(/C=C/c5ccccc5)cc4)cc-3n2)c1F [Compound 281]
A: 1.8 µM

Q: Provide value of EC50 for this record tested with HCV replication: CCCc1ccc(-c2ccc(Cn3cc4nc(-c5cccc(F)c5F)nc-4cn3)nn2)cc1 [Compound 220]
A: 0.52 µM

Q: Provide value of EC50 for this record tested with HCV replication: COC(=O)c1cc(Cn2cc3nc(-c4cccc(F)c4F)nc-3cn2)ccc1-c1ccc(OC)cc1C(F)(F)F [Compound 288]
A: 0.2 µM

Q: Provide value of EC50 for this record tested with HCV replication: CC(C)Cc1ccc(-c2ccc(Cn3cc4nc(-c5cccc(F)c5F)nc-4cn3)nn2)cc1 [Compound 208]
A: ≥ 50 µM

Q: Provide value of EC50 for this record tested with HCV replication: Fc1cc(C(F)(F)F)ccc1-c1ccc(Cn2cc3nc(-c4cccc(F)c4F)nc-3cn2)cn1 [Compound 251]
A: ≥ 50 µM

Q: Provide value of EC50 for this record tested with HCV replication: Fc1cccc(-c2nc3cnn(Cc4ccc(-c5ccsc5)cc4)cc-3n2)c1F [Compound 272]
A: 18.7 µM

Q: Provide value of EC50 for this record tested with HCV replication: COc1ccc(-c2ccc(Cn3cc4nc(-c5cccc(F)c5F)nc-4cn3)c[n+]2[O-])c(C(F)(F)F)c1 [Compound 338]
A: 1.3 µM

Q: Provide value of EC50 for this record tested with HCV replication: Fc1cccc(-c2nc3cnn(Cc4cccc(-c5ccc(C(F)(F)F)cc5C(F)(F)F)c4)cc-3n2)c1F [Compound 256]
A: 9.79 µM

Q: Provide value of EC50 for this record tested with HCV replication: Fc1cccc(-c2nc3cnn(Cc4ccc(-c5ccc(C(F)(F)F)cc5)cn4)cc-3n2)c1F [Compound 246]
A: ≥ 50 µM

Q: Provide value of EC50 for this record tested with HCV replication: Fc1cccc(-c2nc3cnn(Cc4ccc(-c5ccc(Cl)cc5C(F)(F)F)nc4)cc-3n2)c1F [Compound 236]
A: 0.015 µM

Q: Provide value of EC50 for this record tested with HCV replication: COc1ccc(-c2cnc(Cn3cc4nc(-c5cccc(F)c5F)nc-4cn3)nc2)c(C(F)(F)F)c1 [Compound 265]
A: 0.228 µM

Q: Provide value of EC50 for this record tested with HCV replication: CCCOc1ccc(-c2ccc(Cn3cc4nc(-c5cccc(F)c5F)nc-4cn3)cc2N)cc1 [Compound 357]
A: ≥ 50 µM

Q: Provide value of EC50 for this record tested with HCV replication: Nc1cc(C(F)(F)F)ccc1-c1ccc(Cn2cc3nc(-c4cccc(F)c4F)nc-3cn2)cn1 [Compound 335]
A: 2.39 µM

Q: Provide value of EC50 for this record tested with HCV replication: COc1ccc(-c2ccc(Cn3cc4nc(-c5cccc(F)c5F)nc-4cn3)cc2F)c(C(F)(F)F)c1 [Compound 261]
A: 0.05 µM

Q: Provide value of EC50 for this record tested with HCV replication: CCCCc1ccc(-c2ccc(Cn3cc4nc(-c5cccc(F)c5F)nc-4cn3)cn2)cc1C(F)(F)F [Compound 347]
A: 2.59 µM

Q: Provide value of EC50 for this record tested with HCV replication: COc1ccc(-c2ccc(Cn3cc4nc(-c5cccc(F)c5F)nc-4cn3)c(C)n2)c(C(F)(F)F)c1 [Compound 224]
A: 0.281 µM

Q: Provide value of EC50 for this record tested with HCV replication: Fc1cccc(-c2nc3cnn(Cc4ccc(-c5cncnc5)cc4)cc-3n2)c1F [Compound 293]
A: ≥ 50 µM

Q: Provide value of EC50 for this record tested with HCV replication: Cc1ccc(-c2ccc(Cn3cc4nc(-c5cccc(F)c5F)nc-4cn3)nn2)cc1 [Compound 211]
A: 3.47 µM

Q: Provide value of EC50 for this record tested with HCV replication: Fc1cccc(-c2nc3cnn(Cc4ccc(N5CCOCC5)nn4)cc-3n2)c1F [Compound 355]
A: ≥ 50 µM

Q: Provide value of EC50 for this record tested with HCV replication: Fc1cccc(-c2nc3cnn(Cc4ccc(Br)cn4)cc-3n2)c1F [Compound 262]
A: ≥ 50 µM

Q: Provide value of EC50 for this record tested with HCV replication: COc1ccc(-c2ccc(Cn3cc4nc(-c5cccc(F)c5F)nc-4cn3)cc2C(=O)O)c(C(F)(F)F)c1 [Compound 346]
A: ≥ 50 µM

Q: Provide value of EC50 for this record tested with HCV replication: Fc1cc(C(F)(F)F)ccc1-c1ccc(Cn2cc3nc(-c4cccc(F)c4F)nc-3cn2)cc1 [Compound 230]
A: 3.14 µM

Q: Provide value of EC50 for this record tested with HCV replication: FCCCOc1ccc(-c2ccc(Cn3cc4nc(-c5cccc(F)c5F)nc-4cn3)nn2)c(C(F)(F)F)c1 [Compound 351]
A: 0.025 µM
